B1: WW domain-binding protein 4, residues 8 to 43; numbered along this chain, O75554 (parent)
chain: QPKKFCDYCKCWIADNRPSVEFHERGKNHKENVAKR

Variants of: B1
Assay: abundance fitness (aPCA) (normalised: wild type 0, dead -1); higher = more abundant; growth selection in yeast, the domain comes from the species named
Details: Homo sapiens

MUTATION_STRING	abundance fitness
C9M	-1.23
P2I	0.015
Q1S	-0.651
N28W	0.147
K3R	0.013
K35V	-0.129
R25G	0.039
C9V	-1.28
H29D	-0.995
E31P	-0.332
A14E	-0.048
F22S	-0.01
H29Q	-0.656
F22C	0.089
P18K	-0.175
V33T	-0.23
R25K	0
E21R	-0.05
K10N	-0.149
K3D	-0.025
